experimentDescription: Water solubility limit by visual examination (transparent/turbid)
Assay type: physicochemical
measurementContext: water, thermodynamic from solid, water, at RT; read-out: Solubility Limit (S/mM)
Each record here notes measured solubility.

| compound | solubility |
| --- | --- |
| CCCCCC(=O)OC[C@H]1O[C@H](OC)[C@H](O)[C@@H](O)[C@@H]1O [MeαGlcO(C=O)C5, Methyl 6-O-hexanoyl-α-D-glucopyranoside] | < 40 mM |
| CCCCCCCCOC(=O)[C@H]1O[C@H](OC)[C@H](O)[C@@H](O)[C@@H]1O [MeαGlc(C=O)OC8, methyl octyl α-D-glucuronate] | 15 to 20 mM |
| CCCCCCCC(=O)OC[C@H]1O[C@H](OC)[C@H](O)[C@@H](O)[C@@H]1O [MeαGlcO(C=O)C7, Methyl 6-O-octanoyl-α-D-glucopyranoside] | ≤ 10 mM |
| CCCCCCCCO[C@@H]1O[C@H](CO)[C@H](O)[C@H](O)[C@H]1O [Molecule C8βGal, octyl β-D-galactopyranoside, reference compound] | 10 to 20 mM |

Reference for the values: paper PMC11123692
